EXPERIMENT: AUC (0 to last) in BALB/c mouse at 5 mg/kg, ip measured after upto 24 hrs by LC-MS/MS analysis
Type: ADME, organism-based
Design: route intraperitoneal, dose 5 mg/kg, time <=24
RUN_PARAMETERS: in vivo
MEASURED_PROPERTY: AUC(0-t) at 24 h (µg·h/mL)
Dear colleague, please return just the value in µg·h/mL, with no unit written.

Summary for this compound, Cl.Cn1cc(CN2CC3(CCN(c4ncc(C(=O)NO)cn4)C3)C2)c2ccc(C#N)cc21 : AUC(0-t) at 24 h is 0.638

----------
Provide the reported selectivity ratio of each item.
EXPERIMENT: Selectivity index, ratio of IC50 for cytotoxicity against human HepG2 cells to IC50 for antimalarial activity against asexual blood stage wild-type Plasmodium falciparum 3D7
Type: toxicity, cell-based
RUN_PARAMETERS: read-out: Ratio IC50
Could you keep your reply to the number by itself?

Item: COc1ccc2c(CN3CC4(CCN(c5ncc(C(=O)NO)cn5)C4)C3)cn(C)c2c1 | selectivity ratio: 106

Lab note: measured selectivity ratio of O=C(NO)c1cnc(N2CCC3(CN(CC4CCCC4)C3)C2)nc1 was 64

Lab note: O=C(NO)c1cnc(N2CCC3(CN(CC4CCCCC4)C3)C2)nc1 gave selectivity ratio of 46

----------
SYSTEM: Protein deacetylase HDAC6 (Homo sapiens, UniProt Q9UBN7)
Sequence (Q9UBN7 whole entry, the tested form may be a part): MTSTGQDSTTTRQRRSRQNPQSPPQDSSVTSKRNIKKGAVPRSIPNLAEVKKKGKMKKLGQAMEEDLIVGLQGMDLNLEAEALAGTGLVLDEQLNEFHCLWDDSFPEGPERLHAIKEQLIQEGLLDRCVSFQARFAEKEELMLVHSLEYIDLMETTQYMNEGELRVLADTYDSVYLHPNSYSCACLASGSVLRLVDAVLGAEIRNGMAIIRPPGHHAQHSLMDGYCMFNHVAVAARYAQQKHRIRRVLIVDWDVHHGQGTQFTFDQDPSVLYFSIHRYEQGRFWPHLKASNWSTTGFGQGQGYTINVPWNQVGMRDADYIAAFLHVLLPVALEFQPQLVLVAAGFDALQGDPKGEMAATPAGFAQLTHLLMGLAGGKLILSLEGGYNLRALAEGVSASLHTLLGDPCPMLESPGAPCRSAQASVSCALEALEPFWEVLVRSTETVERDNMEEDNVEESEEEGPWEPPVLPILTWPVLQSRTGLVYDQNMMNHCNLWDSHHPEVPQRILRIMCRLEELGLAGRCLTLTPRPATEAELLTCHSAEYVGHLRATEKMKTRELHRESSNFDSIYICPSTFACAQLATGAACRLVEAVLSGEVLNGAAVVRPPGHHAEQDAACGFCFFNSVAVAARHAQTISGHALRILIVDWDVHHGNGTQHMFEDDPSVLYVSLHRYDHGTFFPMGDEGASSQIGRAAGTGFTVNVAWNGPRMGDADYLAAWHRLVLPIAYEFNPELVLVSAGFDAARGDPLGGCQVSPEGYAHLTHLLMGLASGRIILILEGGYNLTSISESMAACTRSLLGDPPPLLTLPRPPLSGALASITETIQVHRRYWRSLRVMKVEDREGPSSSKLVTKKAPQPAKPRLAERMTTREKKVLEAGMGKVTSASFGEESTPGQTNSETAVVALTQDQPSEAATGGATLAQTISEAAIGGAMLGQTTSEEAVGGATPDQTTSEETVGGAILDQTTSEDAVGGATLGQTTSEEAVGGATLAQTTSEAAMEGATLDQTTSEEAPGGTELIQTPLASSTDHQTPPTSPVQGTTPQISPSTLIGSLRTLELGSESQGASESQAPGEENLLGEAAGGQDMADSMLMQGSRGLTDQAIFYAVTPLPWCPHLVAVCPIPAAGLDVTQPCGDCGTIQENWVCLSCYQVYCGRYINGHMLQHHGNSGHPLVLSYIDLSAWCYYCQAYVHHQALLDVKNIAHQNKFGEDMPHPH
EXPERIMENT: Inhibition of recombinant human full length N-terminal GST tagged HDAC6 (1 to 1215 residues) expressed in baculovirus-infected Sf9 cells using Ac-peptide as substrate incubated for 4 hrs
MEASURED_PROPERTY: IC50 (nM)
Unit nM implied. Number only.

The recorded IC50 for Cl.Cn1cc(CN2CC3(CCN(c4ncc(C(=O)NO)cn4)C3)C2)c2ccc(C#N)cc21 is 85.5

----------
EXPERIMENT: Metabolic stability in human liver microsomes assessed as half life at […] incubated for 45 mins in presence of NADPH by LC/MS analysis
Type: ADME, Microsome
MEASURED_PROPERTY: half-life

// sample Cl.Cn1cc(CN2CC3(CCN(c4ncc(C(=O)NO)cn4)C3)C2)c2ccc(C#N)cc21 , its half-life was > 2 h

----------
EXPERIMENT: Cytotoxicity against human HepG2 cells incubated for 72 hrs by CCK-8 assay
Task for the reader: assign each of the following compounds its reported IC50 at 72 h.

Measured IC50 at 72 h, O=C(NO)c1cnc(N2CCC3(CN(Cc4ccc(-c5ccccc5)cc4)C3)C2)nc1 : 3140 nM

Note to self: IC50 at 72 h recorded for O=C(NO)c1cnc(N2CCC3(CN(Cc4ccsc4)C3)C2)nc1 was 2460 nM

Consider Cl.O=C(NO)c1cnc(N2CCC3(CN(Cc4cnc5ccccc5c4)C3)C2)nc1 . Its measured IC50 at 72 h is 2040 nM

The reported value for Cl.Cn1c(CN2CC3(CCN(c4ncc(C(=O)NO)cn4)C3)C2)nc2ccccc21 in terms of IC50 at 72 h is > 9450 nM

Reported IC50 at 72 h of O=C(NO)c1cnc(N2CCC3(CN(Cc4csc5ccccc45)C3)C2)nc1 : 490 nM

----------
EXPERIMENT: Cmax in BALB/c mouse at 5 mg/kg, ip measured upto 24 hrs by LC-MS/MS analysis
Assay type: ADME, organism-based
Set-up: route intraperitoneal, dose 5 mg/kg, time <=24
RUN_PARAMETERS: in vivo
Assignment: determine reported Cmax for the given compounds.

Form field Cmax, entry Cn1cc(CNCC2CCN(c3ncc(C(=O)NO)cn3)CC2)c2ccccc21 [QUISINOSTAT] : 89 ng/mL

# Cmax (compound: Cl.Cn1cc(CN2CC3(CCN(c4ncc(C(=O)NO)cn4)C3)C2)c2ccc(C#N)cc21 ) is 539 ng/mL

----------
EXPERIMENT: Selectivity index, ratio of IC50 for cytotoxicity against HEK293T cells to IC50 for antimalarial activity against asexual blood stage wild-type Plasmodium falciparum 3D7
Type: toxicity, cell-based
RUN_PARAMETERS: human, read-out: Ratio IC50
MEASURED_PROPERTY: selectivity ratio

For this molecule ( O=C(NO)c1cnc(N2CCC3(CN(Cc4cnc5ccccn45)C3)C2)nc1 ), measured selectivity ratio is 195

Data point: Cl.Cn1cc(CN2CC3(CCN(c4ncc(C(=O)NO)cn4)C3)C2)c2ccc(C#N)cc21 ; selectivity ratio = 960

Noted for O=C(NO)c1cnc(N2CCC3(CN(Cc4c5ccccc5cc5ccccc45)C3)C2)nc1 : its selectivity ratio reads 49

Given item Cn1nc(CN2CC3(CCN(c4ncc(C(=O)NO)cn4)C3)C2)c2ccccc21 , the value recorded as its selectivity ratio is 767

Recorded result, O=C(NO)c1cnc(N2CCC3(CN(Cc4ccccc4)C3)C2)nc1 , selectivity ratio: 78

Lab book: selectivity ratio of O=C(NO)c1cnc(N2CCC3(CN(Cc4ccc5ncccc5c4)C3)C2)nc1 noted as 102

The molecule identified as Cl.Cn1cc(CN2CC3(CCN(c4ncc(C(=O)NO)cn4)C3)C2)c2ncccc21 registered its selectivity ratio at > 7490

The recorded selectivity ratio for entry O=C(NO)c1cnc(N2CCC3(CN(Cc4cccc5cnccc45)C3)C2)nc1 equals 97

Form: molecule = O=C(NO)c1cnc(N2CCC3(CN(Cc4cccc5ccccc45)C3)C2)nc1 ; selectivity ratio = 605

# selectivity ratio (molecule: O=C(NO)c1cnc(N2CCC3(CN(Cc4ccoc4)C3)C2)nc1 ) is 431

----------
EXPERIMENT: Selectivity index, ratio of IC50 for cytotoxicity against human HepG2 cells to IC50 for antimalarial activity against asexual blood stage wild-type Plasmodium falciparum 3D7
Format: toxicity, cell-based
RUN_PARAMETERS: read-out: Ratio IC50
MEASURED_PROPERTY: selectivity ratio

// recorded selectivity ratio for O=C(NO)c1cnc(N2CCC3(CN(Cc4cccc5cccnc45)C3)C2)nc1 : 202

Item: O=C(NO)c1cnc(N2CCC3(CN(Cc4ccncc4)C3)C2)nc1 | selectivity ratio: > 146

Per the record, Cn1nc(CN2CC3(CCN(c4ncc(C(=O)NO)cn4)C3)C2)c2ccccc21 has selectivity ratio of 218

selectivity ratio reading for Cl.Cn1cc(CN2CC3(CCN(c4ncc(C(=O)NO)cn4)C3)C2)c2ncccc21 : > 7490

Kindly note the recorded selectivity ratio for O=C(NO)c1cnc(N2CCC3(CN(Cc4ccccc4)C3)C2)nc1 , which is 16

// selectivity ratio value for Cl.Cn1cc(CN2CC3(CCN(c4ncc(C(=O)NO)cn4)C3)C2)c2ccc(C#N)cc21 : 810

Item: Cl.O=C(NO)c1cnc(N2CCC3(CN(Cc4cnc5ccccc5c4)C3)C2)nc1 | selectivity ratio: 537

selectivity ratio reading for Cn1cc(CN2CC3(CCN(c4ncc(C(=O)NO)cn4)C3)C2)c2ccccc21 : 157

----------
EXPERIMENT: Apparent clearance in BALB/c mouse at 5 mg/kg, ip measured after upto 24 hrs by LC-MS/MS analysis
Format: ADME, organism-based
RUN_PARAMETERS: in vivo, read-out: CLz/F (converted)
Can you tell me CL/F for the items I'm about to list?
# value in mL/min/kg; strip the unit string

The molecule listed as Cn1cc(CNCC2CCN(c3ncc(C(=O)NO)cn3)CC2)c2ccccc21 [QUISINOSTAT] shows CL/F equal to 462

Entry Cl.Cn1cc(CN2CC3(CCN(c4ncc(C(=O)NO)cn4)C3)C2)c2ccc(C#N)cc21 , CL/F reported as 130

----------
Provide the reported log10 of IC50 at 72 h of each item.
EXPERIMENT: Cytotoxicity against human HepG2 cells incubated for 72 hrs by CCK-8 assay
Values below are the log10 of the recorded IC50 at 72 h, with nM as the unit.

Per the records, this molecule ( COc1ccc2c(CN3CC4(CCN(c5ncc(C(=O)NO)cn5)C4)C3)cn(C)c2c1 ) has log10 of IC50 at 72 h equal to 2.80

Lookup result for Cl.Cn1cc(CN2CC3(CCN(c4ncc(C(=O)NO)cn4)C3)C2)c2ccc(C#N)cc21 ; measured log10 of IC50 at 72 h: 3.01

Record summary for O=C(NO)c1cnc(N2CCC3(CN(Cc4cccs4)C3)C2)nc1 : reported log10 of IC50 at 72 h = 3.40

The value of log10 of IC50 at 72 h measured for the molecule O=C(NO)c1cnc(N2CCC3(CN(Cc4ccccn4)C3)C2)nc1 turned out to be 3.92

According to the records, this molecule O=C(NO)c1cnc(N2CCC3(CN(Cc4cccnc4)C3)C2)nc1 displays log10 of IC50 at 72 h of 4.06

// sample O=C(NO)c1cnc(N2CCC3(CN(Cc4cnc5ccccn45)C3)C2)nc1 , its log10 of IC50 at 72 h was 4.30

# log10 of IC50 at 72 h (molecule: Cn1cc(CN2CC3(CCN(c4ncc(C(=O)NO)cn4)C3)C2)c2ccccc21 ) is 2.86

Value of measured log10 of IC50 at 72 h for the entry O=C(NO)c1cnc(N2CCC3(CN(Cc4ccncc4)C3)C2)nc1 : 4.30

Field log10 of IC50 at 72 h (entry Cl.Cn1cc(CN2CC3(CCN(c4ncc(C(=O)NO)cn4)C3)C2)c2ncccc21 ) reads 4.30

In plain terms, O=C(NO)c1cnc(N2CCC3(CN(Cc4cc5ccccc5o4)C3)C2)nc1 has a documented log10 of IC50 at 72 h of 3.59

So, O=C(NO)c1cnc(N2CCC3(CN(CC4CCCC4)C3)C2)nc1 ? Its log10 of IC50 at 72 h was 3.03

// O=C(NO)c1cnc(N2CCC3(CN(Cc4cccc5cnccc45)C3)C2)nc1 : log10 of IC50 at 72 h value = 3.34

Given item O=C(NO)c1cnc(N2CCC3(CN(Cc4cc5ccccc5s4)C3)C2)nc1 , the value recorded as its log10 of IC50 at 72 h is 3.56

O=C(NO)c1cnc(N2CCC3(CN(CC4CCCCC4)C3)C2)nc1 yielded log10 of IC50 at 72 h of 3.01

So, Cn1cc(CNCC2CCN(c3ncc(C(=O)NO)cn3)CC2)c2ccccc21 [QUISINOSTAT] ? Its log10 of IC50 at 72 h was 1.48

// sample O=C(NO)c1cnc(N2CCC3(CN(Cc4ccccc4)C3)C2)nc1 , its log10 of IC50 at 72 h was 2.62

Field log10 of IC50 at 72 h (entry O=C(NO)c1cnc(N2CCC3(CN(Cc4ccco4)C3)C2)nc1 ) reads 4.04

log10 of IC50 at 72 h measured on O=C(NO)c1cnc(N2CCC3(CN(Cc4ccc5ncccc5c4)C3)C2)nc1 = 3.19

O=C(NO)c1cnc(N2CCC3(CN(Cc4ccc5ccccc5c4)C3)C2)nc1 has a reported log10 of IC50 at 72 h of 3.33

Query O=C(NO)c1cnc(N2CCC3(CN(Cc4cncc5ccccc45)C3)C2)nc1 yields log10 of IC50 at 72 h of 3.35

Cl.Cn1cc(CN2CC3(CCN(c4ncc(C(=O)NO)cn4)C3)C2)c2ccc(Br)cc21 has a reported log10 of IC50 at 72 h of 2.88
